biological target: UniProt P01375; experiment: TNF induced HEK-Blue assay (NF-kB-driven secreted alkaline phosphatase reporter); assay type: cell-based; details: TNFα 0.5 ng/mL, HEK-Blue-CD40L cells, 18 h; read-out: TNF induced HEK-Blue assay IC50 value
Sequence (P01375 77-233 limits assumed): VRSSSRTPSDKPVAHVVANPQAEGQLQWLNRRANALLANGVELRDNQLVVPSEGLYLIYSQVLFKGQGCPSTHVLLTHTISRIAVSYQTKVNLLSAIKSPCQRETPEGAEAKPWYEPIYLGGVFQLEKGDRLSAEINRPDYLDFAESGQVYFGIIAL
pIC50: −log10 of the molar value.
Entries and their pIC50

Worked examples follow.
[[record]]
compound = "C[C@@H](Nc1c(Cl)cnc2ccc(-c3ccc(C4(NCCO)CCC4)cc3)cc12)c1ccccc1F [Example 568]"
measured = "> 6.00"

[[record]]
compound = "COc1ccc(F)c([C@H](C)Nc2c(Cl)cnc3ccccc23)c1 [Example 476]"
measured = "5.00 to 6.00"

[[record]]
compound = "CC(C)(O)c1ncc(-c2nc3c(N[C@H](c4cc(C#N)ccc4F)C(F)F)c(Cl)cnc3cc2F)cn1 [Example 489]"
measured = "> 6.00"


State its pIC50 for this compound: C[C@@H](Nc1c(Cl)cnc2ccc(-c3cnc(C(C)(C)O)nc3)cc12)c1cc(-c2cncs2)ccc1F [Example 347] > 6.00

State its pIC50 for this compound: C=Cc1cccc(C(Nc2c(Cl)cnc3cc(F)c(-c4cnc(C(C)(C)O)nc4)nc23)C(F)F)c1 (racemic) [Example 216] > 6.00

State its pIC50 for this compound: C[C@@H](Nc1c(Cl)cnc2ccccc12)c1cc(-c2cncnc2)ccc1F [Example 479] > 6.00
